- Test system: NCI-H1975
- procedure-summary: Antiproliferative activity against human NCI-H1975 cells at 10 uM after 72 hrs by MTS assay
- Assay type: functional
Cut-off 40% on Activity, inclusive. At or above means satisfied; below means not satisfied.

Request: Could you please find out whether O=C1Nc2ccc(Cl)cc2/C1=N/c1ccc2ncccc2c1 has Activity that meets 40% or exceeds it?
Result: satisfied

Request: Reported Activity reaches at least 40% for O=C1Nc2ncccc2/C1=C/c1ccc(N2CCN(C(=O)c3ccccc3)CC2)cc1 ?
Result: not satisfied

Request: Could you verify whether the entry O=C1Nc2ncccc2/C1=C/c1ccc(N2CCOCC2)cc1 shows Activity of no less than 40%?
Result: not satisfied

Request: Is it the case that O=C1Nc2ccc(Cl)cc2/C1=N/c1ccc2nc(S)[nH]c2c1 has Activity reaching or exceeding 40%?
Result: not satisfied

Request: Confirm if Activity reported for the compound CCOC(=O)c1ccc(/N=C2\C(=O)Nc3ccc(Cl)cc32)c(Nc2cc(OC)cc(OC)c2)c1 is 40% or above.
Result: satisfied

Request: Is the recorded value of Activity equal to or greater than 40% for this compound? O=C1Nc2ccccc2/C1=C/c1ccc(N2CCN(C(=O)c3ccccc3)CC2)cc1
Result: satisfied

###

- Tested on: NCI-H1975
- procedure-summary: Antiproliferative activity against human NCI-H1975 cells at 10 uM after 72 hrs by MTS assay
- Format: functional
Classify: T when Activity is strictly less than 30%; F when Activity is not.

Request: In plain terms, does O=C1Nc2ccccc2/C1=C/c1ccc(N2CCN(C(=O)CCCl)CC2)cc1 come in under 30% for Activity?
Result: F

Request: Does O=C1Nc2ncccc2/C1=C/c1ncc[nH]1 have Activity strictly under 30%?
Result: T

Request: Item O=CN1CCN(c2ccc(/C=C3\C(=O)Nc4ccccc43)cc2)CC1 : Activity beneath 30%, strictly?
Result: T

Request: Lab note: confirm whether the reported Activity for this molecule is below 30%, equality not counting. molecule: O=C1Nc2ncccc2/C1=C/c1ccc(N2CCN(C(=O)CCCl)CC2)cc1
Result: T

Request: hey, is Activity for O=C1Nc2ccc(Cl)cc2/C1=N/NC(=O)c1ccco1 lower than 30% or not?
Result: T

Request: Consider the molecule C=CC(=O)N1CCN(c2ccc(/C=C3\C(=O)Nc4ncccc43)cc2)CC1 . Is its Activity strictly less than 30%?
Result: F

Request: Below 30% on Activity? Entry O=C1Nc2ccc(Cl)cc2/C1=N/c1ccc2cc[nH]c2c1
Result: F

Request: Please state whether Activity is below 30% for CCOC(=O)c1ccc(/N=C2\C(=O)Nc3ccc(Cl)cc32)c(N2CCOCC2)n1
Result: F

Request: Quick check: Activity of O=C1Nc2ncccc2/C1=C/c1c[nH]c2ccc(Br)cc12 under 30%?
Result: F

Request: API: query returns whether the molecule falls strictly under 30% in Activity. Query: O=C1Nc2ccc(Cl)cc2/C1=N/c1ccc2[nH]ccc2c1
Result: T

Request: Threshold test, Activity < 30%: O=C1Nc2ncccc2/C1=C/c1c[nH]c2ccccc12
Result: T

###

Please respond with reported pIC50 for every item in the list.
- System: A549
- procedure-summary: Antiproliferative activity against human A549 cells after 72 hrs by MTS assay
- Format: functional, cell-based
- condition-notes: A549, 72 h
Keep it numeric: pIC50 is minus log10 of the concentration in mol/L.

Request: Report pIC50 on A549 for this entry: C=CC(=O)N1CCN(c2ccc(/C=C3\C(=O)Nc4ccccc43)cc2)CC1
Result: 4.99

Request: Check A549 data and give pIC50 for O=C1Nc2ccccc2/C1=C/c1ccc(N2CCN(C(=O)CCCl)CC2)cc1 .
Result: 5.52
